- Assay summary: Pharmacokinetics in Sprague Dawley rats (plasma and brain concentrations, PK parameters)
- Format: in vivo
- Condition context: Sprague-Dawley, rat, plasma, iv, 3 mg/kg, Sprague Dawley rat, iv 3 mg/kg, plasma, 0.25 h, Rat 3; read-out: Concentration Rat 3
Quantity measured: concentration at 0.25 h (ng/mL)

Compound	Quantity measured	Observed value
O=C1CCC(N2C(=O)c3cccc(NCCOCCOCCNCc4ccc(-n5cc(NC(=O)c6coc(-c7ccnc(NCC8CC8)c7)n6)c(C(F)F)n5)cc4)c3C2=O)C(=O)N1 (stereo not shown)	concentration at 0.25 h	469

###

- Tested target: IRAK4 (Homo sapiens, UniProt Q9NWZ3)
- Sequence (Q9NWZ3 whole entry): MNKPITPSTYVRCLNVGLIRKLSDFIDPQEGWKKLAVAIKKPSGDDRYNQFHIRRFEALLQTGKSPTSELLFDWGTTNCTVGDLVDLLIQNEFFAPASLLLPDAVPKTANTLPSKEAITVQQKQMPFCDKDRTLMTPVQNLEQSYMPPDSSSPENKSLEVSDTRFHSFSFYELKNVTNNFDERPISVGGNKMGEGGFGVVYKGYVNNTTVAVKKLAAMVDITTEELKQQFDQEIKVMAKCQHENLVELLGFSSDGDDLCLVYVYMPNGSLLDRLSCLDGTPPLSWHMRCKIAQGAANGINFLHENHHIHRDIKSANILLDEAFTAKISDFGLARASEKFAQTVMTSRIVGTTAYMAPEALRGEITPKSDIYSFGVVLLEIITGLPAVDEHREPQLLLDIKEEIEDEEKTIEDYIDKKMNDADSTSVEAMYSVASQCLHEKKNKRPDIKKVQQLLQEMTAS
- Assay summary: OCI-LY-10 degradation assay (western blot, % IRAK4 degraded after 4 hours)
- Format: cell-based
- Set-up: endogenous in cells; host or cells: OCI-LY10
- Condition context: OCI-LY10 cells, 4 hours, 0.01 uM compound

Compound	OCI-LY10 % IRAK4 Degradation (0.01 uM)
CN(CCCc1ccc2c(c1)C(=O)N(C1CCC(=O)NC1=O)C2=O)Cc1ccc(-n2cc(NC(=O)c3coc(-c4ccncc4)n3)c(C(N)=O)n2)cc1 (stereo not drawn) [I-370]	C (<20% degradation)
NC(=O)c1nn(-c2ccc(C(=O)NCCOCCOCCCc3cccc4c3C(=O)N(C3CCC(=O)NC3=O)C4=O)cc2)cc1NC(=O)c1coc(-c2ccnc(NCC(F)(F)F)c2)n1 (stereo not drawn) [I-233]	C (<20% degradation)
CN(CCOCCOCCCc1cccc2c1C(=O)N(C1CCC(=O)NC1=O)C2=O)C(=O)c1ccc(-n2cc(NC(=O)c3coc(-c4ccncc4)n3)c(C(N)=O)n2)cc1 (stereo not drawn) [I-226]	B (>20-50% degradation)
NC(=O)c1nn(-c2ccc(CNCCOCCOCCCc3cccc4c3C(=O)N(C3CCC(=O)NC3=O)C4=O)cc2)cc1NC(=O)c1coc(-c2ccnc(NCC(F)(F)F)c2)n1 (stereo not drawn) [I-321]	B (>20-50% degradation)
Cn1cc(-c2nc(C(=O)Nc3cn(-c4ccc(CNCCOCCOCCNc5cccc6c5C(=O)N(C5CCC(=O)NC5=O)C6=O)cc4)nc3C(F)F)co2)cn1 (stereo not drawn) [I-352]	C (<20% degradation)
O=C1CCC(N2C(=O)c3cccc(NC4CCN(CCOCCOCCOCCNC(=O)c5ccc(-n6cc(NC(=O)c7coc(-c8ccnc(NCC9CC9)c8)n7)c(C(F)F)n6)cc5)CC4)c3C2=O)C(=O)N1 (stereo not drawn) [I-269]	C (<20% degradation)
